Test system: T1, HSP70 (human HSP70; the antigen of the binning, humanization and variant binding assays) (human, UniProt P0DMV8 1-641, limits assumed)
T1 construct: also called hu HSP70
T1 sequence (P0DMV8 whole entry, change not shown): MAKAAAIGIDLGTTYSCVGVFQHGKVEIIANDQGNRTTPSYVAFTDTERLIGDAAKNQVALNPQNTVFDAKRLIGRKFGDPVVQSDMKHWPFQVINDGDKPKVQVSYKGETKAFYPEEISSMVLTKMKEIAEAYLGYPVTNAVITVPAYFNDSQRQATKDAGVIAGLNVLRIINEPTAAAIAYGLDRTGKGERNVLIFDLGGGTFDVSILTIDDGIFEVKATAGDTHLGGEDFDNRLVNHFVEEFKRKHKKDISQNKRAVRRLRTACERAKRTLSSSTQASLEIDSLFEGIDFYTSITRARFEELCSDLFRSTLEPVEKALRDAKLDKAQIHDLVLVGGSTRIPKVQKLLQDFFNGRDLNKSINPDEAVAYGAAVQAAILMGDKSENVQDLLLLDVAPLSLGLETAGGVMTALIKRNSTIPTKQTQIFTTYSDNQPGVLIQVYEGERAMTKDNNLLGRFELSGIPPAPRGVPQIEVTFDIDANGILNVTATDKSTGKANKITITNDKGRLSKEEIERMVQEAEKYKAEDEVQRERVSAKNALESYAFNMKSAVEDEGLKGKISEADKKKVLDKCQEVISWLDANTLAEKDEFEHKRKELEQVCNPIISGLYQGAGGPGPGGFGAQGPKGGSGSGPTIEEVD
Protocol: BLI, anti-human Fc capture, antigen 100 nM
Property label: % Diss (%)
Numbers only here, please. The scale is %.

# Binder, Property label, Numeric value
measured = [
    ("h77A-1.19 (antibody, V domains shown, captured by anti-human Fc) VH: QIQLVQSGAEVKKPGASVKVSCKASGYTFTNYGMNWVRQAPGQGLEWMGWINTYTGEPTYVDDFKGRFTFTTDTSTSTAYMDLRSLRSDDTAVYFCARYDHAMDYWGQGTLVTVSS VL: EIVLTQSPDSLAVSLGERATINCKSSQSLLNSGTRKNYLAWYQQKAGQSPKLLIYWTSTRESGVPDRFSGSGSGTDFTLTIDSLQAEDVAVYYCKQSYTLYTFGGGTKVEIK", "% Diss", 8.73),
    ("h77A-1.62 (antibody, V domains shown, captured by anti-human Fc) VH: QIQLVQSGAEVKKPGASVKVSCKASGYTFTNYGMNWVRQAPGQGLEWMGWINTYTGEPTYADDFKGRFTFTTDTSTTTGYMELRSLRSDDTAVYFCARYDHAMDYWGQGTLVTVSS VL: EIVLTQSPDSLAVSLGERATIKCKSSQSLLNSGTRKNYLAWYQQKAGQSPKLLIYWTSTRESGVPDRFSASGSGTDFTLTIDSLQAEDVAVYYCKQSYTLYTFGGGTKVEIK", "% Diss", 12.3),
    ("h77A-1.59 (antibody, V domains shown, captured by anti-human Fc) VH: QIQLVQSGPEVKKPGASVKVSCKASGYTFTNYGMNWVRQAPGQGLEWMGWINTYTGEPTYGDDFKGRFTFTTDTSTSTAYMELRSLRSDDTAVYFCGRYDHAMDYWGQGTLVTVSS VL: EIVLTQSPDSLAVSLGERATINCKSSQSLLNSGTRKNYLAWYQQKAGQSPKLLIYWTSTRESGVPDRFSGSGSGTDFTLTIDRLQAEDVAVYYCKQSYTLYTFGGGTKVEIK", "% Diss", 9.8),
    ("h77A-1.97 (antibody, V domains shown, captured by anti-human Fc) VH: QIQLVQSGAEVKKPGASVKVSCKASGYTFTNYGMNWVRQAPGQGLEWMGWINTYTGEPTYADDFKGRFTMTTDTSTSTAYMELRSLRSDDTAVYFCARYDHAMDYWGQGTLVTVSS VL: DIVMTQSPDSLAVSLGERATINCKSSQSLLNSGTRKNYLAWYQQKPGQSPKLLIYWTSTRESGVPDRFSGSGSGTDFTLTISSLQAEDVAVYYCKQSYTLYTFGQGTKLEIK", "% Diss", 27.2),
    ("h77A-1.24 (antibody, V domains shown, captured by anti-human Fc) VH: QIQLVQSGAEVKKPGASVKVSCKASGYTFTNYGMNWVRQAPGQGLEWMGWINTYTGEPTYADDFKGRFTFTTDTSTSTAYMELRSLRSDDTAVYFCARYDHRMDYWGQGTLVTVSS VL: EIVLTQSPDSLAVSLGERATINCKSSQSLLNSGTRKNYLTWYQQKAGQSPKLLIYWTSTRESGVPDRFSGSGSGTDFTLTIDSLQAEDVAVYYCKQSYTLYTFGGGTKVEIK", "% Diss", 33.6),
]

Task: Write down % Diss measured for item h77A-1.14 (antibody, V domains shown, captured by anti-human Fc) VH: QIQLVQSGAEVKKPGASVKVSCKASGYTFTNYGMNWVRQAPGQGLEWMGWINTYTGEPTYTDDFKGRFTFTTDTSTSTAYMELRSLRSDDTAVYFCARYDHAMDYWGQGTLVTVSS VL: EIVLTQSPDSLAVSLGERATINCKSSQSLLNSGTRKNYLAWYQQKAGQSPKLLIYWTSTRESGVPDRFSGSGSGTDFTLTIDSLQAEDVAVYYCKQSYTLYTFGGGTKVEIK
Result: 7.88

Task: Write down % Diss measured for item h77A-1.26 (antibody, V domains shown, captured by anti-human Fc) VH: QIQLVQSGAEVKKPGASVKVSCKASGYTFTNYGMNWVRQAPGQGLEWMGWINTYTGEPTYADDFKGRFTFTTDTSTRTAYMELRSLRSDDTAVYFCTRYDHAMDYWGQGTLVTVSS VL: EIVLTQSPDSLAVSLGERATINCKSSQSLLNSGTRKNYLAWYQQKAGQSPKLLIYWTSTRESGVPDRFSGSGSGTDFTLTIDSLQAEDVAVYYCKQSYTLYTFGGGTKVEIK
Result: 11.8

Task: Write down % Diss measured for item h77A-1.20 (antibody, V domains shown, captured by anti-human Fc) VH: QIQLVQSGDEVKKPGASVKVSCKASGYTFTNYGMNWVRQAPGQGLEWMGWINTYTGEPTYSDDFKGRFTFTTDTSTSTAYMELRSLRSDDTAVYFCARYDHAMDYWGQGTLVTVSS VL: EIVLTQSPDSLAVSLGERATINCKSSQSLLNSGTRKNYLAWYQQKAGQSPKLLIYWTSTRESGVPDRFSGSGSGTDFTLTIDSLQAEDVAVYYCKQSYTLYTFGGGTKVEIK
Result: 12.1

Task: Write down % Diss measured for item h77A-1.21 (antibody, V domains shown, captured by anti-human Fc) VH: QIQLVQSGDEVKKPGASVKVSCKASGYTFTNYGMNWVRQAPGQGLEWMGWINTYTGEPTYADDFKGRFTFTTDTSTSTAYMELRSLRSDDTAVYFCARYDHAMDYWGQGTLVTVSS VL: EIVLTQSPDSLAVSLGERATINCKSSQSLLNSGTRKNYLAWYQQKAGQSPKLLIYWTSTRESGVPDRFSGSGSGTDFTLSIDSLQAEDVAVYYCKQSYTLYTFGGGTKVEIK
Result: 10

Task: Write down % Diss measured for item h77A-1.41 (antibody, V domains shown, captured by anti-human Fc) VH: QIQLVQSGAEVKKPGASVKVSCKASGYTFTNYGMNWVRQAPGQGLEWMGWINTYTGEPTYADDFKGRFTFTTDTSTTTAYMELRSLRSDDTAVYFCARYDHVMDYWGQGTLVTVSS VL: EIVLTQSPDSLAVSLGERATINCKSSQSLLNSGTRKNYLAWYQQKPGQSPKLLIYWTSTRESGVPDRFSGSGSGTDFTLTIDSLQAEDVAVYYCKQSYTLYTFGGGTKVEIK
Result: 34.2
